# test-target: the molecule itself
# experimental-details: AUC; sedimentation velocity, c(s) size distribution (SEDFIT), 50,000 rpm, 20 °C, 10 mM Hepes pH 7.4, 137 mM NaCl, concentration series 0.2 – 3 mg/ml; KD of dimer to monomers from integration of the c(s) peaks
Recorded log10 Kd by entry
measured-quantity: log10 Kd (log10 of the value in µM)

>  <protein>
Complement Factor H SCR-18H fragment (domain or fragment, also: N-linked glycan chain, site not given here) TSCVNPPTVQNAYIVSRQMSKYPSGERVRYQCRSPYEMFGDEEVMCLNGNWTEPPQCKDST

>  <log10 Kd>
1.57

$$$$
>  <protein>
Complement Factor H SCR-17/18H fragment (domain or fragment, N-linked glycan chains on SCR-17 and SCR-18) TDCLSLPSFENAIPMGEKKDVYKAGEQVTYTCATYYKMDGASNVTCINSRWTGRPTCRDTSCVNPPTVQNAYIVSRQMSKYPSGERVRYQCRSPYEMFGDEEVMCLNGNWTEPPQCKDST

>  <log10 Kd>
0.48

$$$$
>  <protein>
Complement Factor H SCR-16/20 fragment (domain or fragment, N-linked glycan chains on SCR-17 and SCR-18) GLPCKSPPEISHGVVAHMSDSYQYGEEVTYKCFEGFGIDGPAIAKCLGEKWSHPPSCIKTDCLSLPSFENAIPMGEKKDVYKAGEQVTYTCATYYKMDGASNVTCINSRWTGRPTCRDTSCVNPPTVQNAYIVSRQMSKYPSGERVRYQCRSPYEMFGDEEVMCLNGNWTEPPQCKDSTGKCGPPPPIDNGDITSFPLSVYAPASSVEYQCQNLYQLEGNKRITCRNGQWSEPPKCLHPCVISREIMENYNIALRWTAKQKLYSRTGESVEFVCKRGYRLSSRSHTLRTTCWDGKLEYPTCAKR

>  <log10 Kd>
1.49

$$$$
>  <protein>
Complement Factor H SCR-16/18H fragment (domain or fragment, N-linked glycan chains on SCR-17 and SCR-18) GLPCKSPPEISHGVVAHMSDSYQYGEEVTYKCFEGFGIDGPAIAKCLGEKWSHPPSCIKTDCLSLPSFENAIPMGEKKDVYKAGEQVTYTCATYYKMDGASNVTCINSRWTGRPTCRDTSCVNPPTVQNAYIVSRQMSKYPSGERVRYQCRSPYEMFGDEEVMCLNGNWTEPPQCKDST

>  <log10 Kd>
0.78

$$$$
>  <protein>
Complement Factor H SCR-17H fragment (domain or fragment, also: N-linked glycan chain, site not given here) TDCLSLPSFENAIPMGEKKDVYKAGEQVTYTCATYYKMDGASNVTCINSRWTGRPTCRDTS

>  <log10 Kd>
0.70

$$$$
